system: Escherichia coli TOP10; test: shrunken log2 fold change of peptide-encoding DNA abundance (4.5 h post-induction vs induction); higher = less antimicrobial activity (less host growth inhibition); details: time post-induction: 4.5 h; library: site-saturation at positions 5, 18, 19, 20
Returns one of class 1 or class 0; class 1 when shrunken log2 fold change is >= -0.09.

Past entries and their recorded results:
- ORDERED RESIDUES: "RRIRCRPPRLPRPRPRPVLDPRP"
  CAT: "class 1"
- ORDERED RESIDUES: "RRIRKRPPRLPRPRPRPECPPRP"
  CAT: "class 1"
- ORDERED RESIDUES: "RRIRLRPPRLPRPRPRPMFVPRP"
  CAT: "class 0"
- ORDERED RESIDUES: "RRIRIRPPRLPRPRPRPPYTPRP"
  CAT: "class 0"

**Q:** Hi team, for RRIRMRPPRLPRPRPRPCVGPRP , is the recorded shrunken log2 fold change at or above -0.09?
**A:** class 1

**Q:** Hi team, for RRIRARPPRLPRPRPRPVRPPRP , is the recorded shrunken log2 fold change at or above -0.09?
**A:** class 1

**Q:** Hi team, for RRIRPRPPRLPRPRPRPADFPRP , is the recorded shrunken log2 fold change at or above -0.09?
**A:** class 1

---

Listing of recorded shrunken log2 fold change by entry.
test system: Escherichia coli TOP10; test: shrunken log2 fold change of peptide-encoding DNA abundance (4.5 h post-induction vs induction); higher = less antimicrobial activity (less host growth inhibition); details: time post-induction: 4.5 h; library: site-saturation at positions 5, 18, 19, 20
Lab note: jot down the number only; don't add units.

- ORDERED RESIDUES: "RRIRLRPPRLPRPRPRPKMEPRP"
  ENDPOINT RESULT: -0.0157
- ORDERED RESIDUES: "RRIRCRPPRLPRPRPRPTYWPRP"
  ENDPOINT RESULT: -0.113
- ORDERED RESIDUES: "RRIRARPPRLPRPRPRPWAEPRP"
  ENDPOINT RESULT: 0.264
- ORDERED RESIDUES: "RRIRCRPPRLPRPRPRPAMSPRP"
  ENDPOINT RESULT: 0.0552
- ORDERED RESIDUES: "RRIRLRPPRLPRPRPRPGIKPRP"
  ENDPOINT RESULT: -0.874
- ORDERED RESIDUES: "RRIRTRPPRLPRPRPRPCFRPRP"
  ENDPOINT RESULT: -0.0887

Record RRIRLRPPRLPRPRPRPVYQPRP . Reported shrunken log2 fold change: -0.0597

Record RRIRPRPPRLPRPRPRPGRTPRP . Reported shrunken log2 fold change: 0.153

Record RRIRVRPPRLPRPRPRPESCPRP . Reported shrunken log2 fold change: 0.242

---

test system: Escherichia coli TOP10; assay: shrunken log2 fold change of peptide-encoding DNA abundance (4.5 h post-induction vs induction); higher = less antimicrobial activity (less host growth inhibition); details: time post-induction: 4.5 h; library: site-saturation at positions 5, 18, 19, 20
Listing of recorded shrunken log2 fold change by entry.
Lab note: jot down the number only; don't add units.

Illustrative cases are given below, each with its answer.
- ORDERED RESIDUES: "RRIRHRPPRLPRPRPRPTNHPRP"
  shrunken log2 fold change: -0.457
- ORDERED RESIDUES: "RRIRLRPPRLPRPRPRPIMEPRP"
  shrunken log2 fold change: -0.193
- ORDERED RESIDUES: "RRIRQRPPRLPRPRPRPSSNPRP"
  shrunken log2 fold change: -0.222
- ORDERED RESIDUES: "RRIRGRPPRLPRPRPRPIMPPRP"
  shrunken log2 fold change: 0.0639

Considering RRIRIRPPRLPRPRPRPSFIPRP , its shrunken log2 fold change with Escherichia coli TOP10 was recorded as -1.24

Considering RRIRIRPPRLPRPRPRPNWEPRP , its shrunken log2 fold change with Escherichia coli TOP10 was recorded as 0.00543

Considering RRIRTRPPRLPRPRPRPDEDPRP , its shrunken log2 fold change with Escherichia coli TOP10 was recorded as 0.0169

Considering RRIRDRPPRLPRPRPRPTMRPRP , its shrunken log2 fold change with Escherichia coli TOP10 was recorded as 1.3

Considering RRIRDRPPRLPRPRPRPHCRPRP , its shrunken log2 fold change with Escherichia coli TOP10 was recorded as -0.123

Considering RRIRMRPPRLPRPRPRPEEYPRP , its shrunken log2 fold change with Escherichia coli TOP10 was recorded as 0.0514

Considering RRIRWRPPRLPRPRPRPARPPRP , its shrunken log2 fold change with Escherichia coli TOP10 was recorded as 0.566

Considering RRIRGRPPRLPRPRPRPIGWPRP , its shrunken log2 fold change with Escherichia coli TOP10 was recorded as 1.18

Considering RRIRRRPPRLPRPRPRPHIKPRP , its shrunken log2 fold change with Escherichia coli TOP10 was recorded as -0.43

Considering RRIRVRPPRLPRPRPRPFQAPRP , its shrunken log2 fold change with Escherichia coli TOP10 was recorded as -0.127

Considering RRIRIRPPRLPRPRPRPEIWPRP , its shrunken log2 fold change with Escherichia coli TOP10 was recorded as -0.18

Considering RRIRMRPPRLPRPRPRPNHLPRP , its shrunken log2 fold change with Escherichia coli TOP10 was recorded as -0.0575

---

tested on: Escherichia coli TOP10; assay: shrunken log2 fold change of peptide-encoding DNA abundance (4.5 h post-induction vs induction); higher = less antimicrobial activity (less host growth inhibition); details: time post-induction: 4.5 h; library: site-saturation at positions 5, 18, 19, 20
Returns one of yes (1) or no (0); yes (1) when shrunken log2 fold change is >= -0.01.

- ORDERED RESIDUES: "RRIRWRPPRLPRPRPRPVPCPRP"
  CAT: "yes (1)"
- ORDERED RESIDUES: "RRIRDRPPRLPRPRPRPFMLPRP"
  CAT: "no (0)"
- ORDERED RESIDUES: "RRIRYRPPRLPRPRPRPYRPPRP"
  CAT: "no (0)"
- ORDERED RESIDUES: "RRIRNRPPRLPRPRPRPGTNPRP"
  CAT: "no (0)"
- ORDERED RESIDUES: "RRIRCRPPRLPRPRPRPVIDPRP"
  CAT: "yes (1)"
- ORDERED RESIDUES: "RRIRTRPPRLPRPRPRPCWDPRP"
  CAT: "no (0)"
- ORDERED RESIDUES: "RRIRYRPPRLPRPRPRPSLGPRP"
  CAT: "no (0)"
- ORDERED RESIDUES: "RRIRLRPPRLPRPRPRPELVPRP"
  CAT: "yes (1)"

**Q:** Hi team, for RRIRLRPPRLPRPRPRPAPAPRP , is the recorded shrunken log2 fold change at or above -0.01?
**A:** yes (1)

**Q:** Hi team, for RRIRPRPPRLPRPRPRPKRSPRP , is the recorded shrunken log2 fold change at or above -0.01?
**A:** yes (1)

**Q:** Hi team, for RRIRKRPPRLPRPRPRPADYPRP , is the recorded shrunken log2 fold change at or above -0.01?
**A:** no (0)

**Q:** Hi team, for RRIRERPPRLPRPRPRPMCLPRP , is the recorded shrunken log2 fold change at or above -0.01?
**A:** no (0)

**Q:** Hi team, for RRIRVRPPRLPRPRPRPVRPPRP , is the recorded shrunken log2 fold change at or above -0.01?
**A:** yes (1)

**Q:** Hi team, for RRIRWRPPRLPRPRPRPAYNPRP , is the recorded shrunken log2 fold change at or above -0.01?
**A:** no (0)

**Q:** Hi team, for RRIRFRPPRLPRPRPRPPDAPRP , is the recorded shrunken log2 fold change at or above -0.01?
**A:** yes (1)

---

test system: Escherichia coli TOP10; test: shrunken log2 fold change of peptide-encoding DNA abundance (4.5 h post-induction vs induction); higher = less antimicrobial activity (less host growth inhibition); conditions: time post-induction: 4.5 h; library: site-saturation at positions 5, 18, 19, 20;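 also: peptides expressed intracellularly from a pBAD plasmid library in pooled LB shake-flask culture, induced with 0.3% L-arabinose, DNA abundance read by NGS, three biological replicates, DESeq2 with apeglm shrinkage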
Returns one of TRUE or FALSE; TRUE when shrunken log2 fold change is >= -0.04.

Past entries and their recorded results:
- ORDERED RESIDUES: "RRIRYRPPRLPRPRPRPAYNPRP"
  TESTED TARGET: "Escherichia coli TOP10"
  CAT: "FALSE"
- ORDERED RESIDUES: "RRIRGRPPRLPRPRPRPFTHPRP"
  TESTED TARGET: "Escherichia coli TOP10"
  CAT: "TRUE"
- ORDERED RESIDUES: "RRIRMRPPRLPRPRPRPWLPPRP"
  TESTED TARGET: "Escherichia coli TOP10"
  CAT: "TRUE"
- ORDERED RESIDUES: "RRIRFRPPRLPRPRPRPYGEPRP"
  TESTED TARGET: "Escherichia coli TOP10"
  CAT: "FALSE"
- ORDERED RESIDUES: "RRIRPRPPRLPRPRPRPNKCPRP"
  TESTED TARGET: "Escherichia coli TOP10"
  CAT: "FALSE"

**Q:** Hi team, for RRIRDRPPRLPRPRPRPFWYPRP , is the recorded shrunken log2 fold change at or above -0.04?
**A:** FALSE

**Q:** Hi team, for RRIRYRPPRLPRPRPRPQSMPRP , is the recorded shrunken log2 fold change at or above -0.04?
**A:** FALSE
